Molecular target: T1, IL10Rα/IL2Rγ receptor (human) (UniProt Q13651)
T1 sequence (looked up) 1: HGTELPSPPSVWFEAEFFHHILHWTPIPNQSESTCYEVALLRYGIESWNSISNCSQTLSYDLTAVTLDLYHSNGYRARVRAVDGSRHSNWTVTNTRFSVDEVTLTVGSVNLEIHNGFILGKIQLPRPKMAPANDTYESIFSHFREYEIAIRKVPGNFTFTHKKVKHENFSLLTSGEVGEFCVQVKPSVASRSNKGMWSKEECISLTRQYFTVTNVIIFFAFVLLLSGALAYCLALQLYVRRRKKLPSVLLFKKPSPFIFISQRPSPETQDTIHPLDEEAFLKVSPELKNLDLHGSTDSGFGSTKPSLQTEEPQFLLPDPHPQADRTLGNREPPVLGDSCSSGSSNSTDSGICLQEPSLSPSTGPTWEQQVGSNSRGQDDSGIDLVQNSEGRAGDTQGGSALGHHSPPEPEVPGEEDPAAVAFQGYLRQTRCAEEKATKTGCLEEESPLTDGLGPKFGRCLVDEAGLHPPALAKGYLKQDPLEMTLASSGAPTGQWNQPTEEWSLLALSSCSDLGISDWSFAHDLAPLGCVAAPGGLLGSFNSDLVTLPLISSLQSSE
T1 sequence (looked up) 2: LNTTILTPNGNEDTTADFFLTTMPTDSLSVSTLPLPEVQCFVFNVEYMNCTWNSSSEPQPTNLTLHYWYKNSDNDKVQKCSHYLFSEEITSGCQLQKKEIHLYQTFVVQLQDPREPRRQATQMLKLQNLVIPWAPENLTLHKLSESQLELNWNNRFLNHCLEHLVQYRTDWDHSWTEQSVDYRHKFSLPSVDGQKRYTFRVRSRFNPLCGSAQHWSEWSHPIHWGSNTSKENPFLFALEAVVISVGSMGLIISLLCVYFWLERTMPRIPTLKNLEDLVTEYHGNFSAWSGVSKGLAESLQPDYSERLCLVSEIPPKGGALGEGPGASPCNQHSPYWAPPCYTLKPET
Experiment: cell-based or functional assay
readoutKind: IFNγ secretion, CD8 T cells, at 0 µM (pg/mL)
Give your result in pg/mL as a bare value.

Use these answered entries as a reference point.
| binder | readoutKind | assayValue |
| --- | --- | --- |
| hIL10Ra_VHH14 - hIL2Rg_VHH19, linker GGGS, tag Fc (bispecific antibody, not shown: a dimerising Fc or GST) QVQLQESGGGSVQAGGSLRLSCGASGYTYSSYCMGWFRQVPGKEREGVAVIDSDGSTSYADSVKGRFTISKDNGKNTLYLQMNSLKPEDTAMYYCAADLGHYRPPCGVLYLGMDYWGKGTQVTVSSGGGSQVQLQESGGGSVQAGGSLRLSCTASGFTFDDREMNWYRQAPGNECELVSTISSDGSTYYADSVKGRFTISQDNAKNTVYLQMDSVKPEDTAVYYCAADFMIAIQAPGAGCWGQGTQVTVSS | IFNγ secretion, CD8 T cells, at 0 µM | 122000 |
| hIL10Ra_VHH14 - hIL2Rg_VHH19, linker GGSGGS, tag his (bispecific antibody, not shown: small tags and cut ends) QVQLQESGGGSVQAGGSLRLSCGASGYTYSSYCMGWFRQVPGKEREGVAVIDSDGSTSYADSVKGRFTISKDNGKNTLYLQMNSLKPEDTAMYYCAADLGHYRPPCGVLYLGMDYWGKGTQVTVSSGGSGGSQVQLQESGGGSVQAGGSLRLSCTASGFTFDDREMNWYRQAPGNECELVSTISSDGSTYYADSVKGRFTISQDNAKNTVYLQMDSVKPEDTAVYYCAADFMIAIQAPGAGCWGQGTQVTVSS | IFNγ secretion, CD8 T cells, at 0 µM | 122000 |

Supply reported IFNγ secretion, CD8 T cells, at 0 µM belonging to this binder: hIL10Ra_VHH14 - hIL2Rg_VHH19, No linker, tag his (bispecific antibody, not shown: small tags and cut ends) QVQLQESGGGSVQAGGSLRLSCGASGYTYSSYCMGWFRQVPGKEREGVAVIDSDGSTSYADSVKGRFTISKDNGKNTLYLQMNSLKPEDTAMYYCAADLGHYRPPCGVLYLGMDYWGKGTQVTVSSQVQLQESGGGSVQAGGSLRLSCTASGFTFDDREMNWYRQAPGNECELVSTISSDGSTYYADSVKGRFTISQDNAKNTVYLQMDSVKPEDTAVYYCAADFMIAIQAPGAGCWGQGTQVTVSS
122000
